# System under test: recombinant homotrimeric HA, A/duck/Yangzhou/02/05 H8N4 (Influenza A virus A/duck/Yangzhou/02/2005 (H8N4))
# Test method notes: trimeric HA microarray, transfection set 3
# Study conditions: remark: other sources report otherwise
Form field: Trimeric HA Binding RLU (one value per entry).
Expressed in RLU, but write only the number.

# count of solved cases: 3
>>> reported_value("TCN-504 (3251_K17) (antibody, V domains shown) VH: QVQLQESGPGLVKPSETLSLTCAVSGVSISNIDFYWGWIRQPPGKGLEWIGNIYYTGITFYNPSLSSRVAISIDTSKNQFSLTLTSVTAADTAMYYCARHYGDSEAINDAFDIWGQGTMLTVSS VL: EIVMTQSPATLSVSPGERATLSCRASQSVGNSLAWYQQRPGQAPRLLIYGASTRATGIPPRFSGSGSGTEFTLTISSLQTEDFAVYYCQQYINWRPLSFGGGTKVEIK")
19600
>>> reported_value("TCN-529 (5297_H01) (antibody, V domains shown) VH: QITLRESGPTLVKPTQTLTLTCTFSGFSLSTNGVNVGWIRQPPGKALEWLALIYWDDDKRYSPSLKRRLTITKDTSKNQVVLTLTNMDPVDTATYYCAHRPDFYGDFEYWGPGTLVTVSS VL: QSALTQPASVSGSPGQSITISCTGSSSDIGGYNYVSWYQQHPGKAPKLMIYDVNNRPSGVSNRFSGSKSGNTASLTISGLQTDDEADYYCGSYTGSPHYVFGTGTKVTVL")
48
>>> reported_value("TCN-533 (5256_A17) (antibody, V domains shown) VH: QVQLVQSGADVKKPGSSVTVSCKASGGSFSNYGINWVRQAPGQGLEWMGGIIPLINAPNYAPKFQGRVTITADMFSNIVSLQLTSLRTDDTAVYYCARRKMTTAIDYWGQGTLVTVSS VL: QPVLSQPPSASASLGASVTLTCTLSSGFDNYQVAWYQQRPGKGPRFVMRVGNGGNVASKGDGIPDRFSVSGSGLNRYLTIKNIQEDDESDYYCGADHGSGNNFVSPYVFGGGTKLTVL")
711

// moving on: another record for Trimeric HA Binding RLU
Provide only the value of recorded Trimeric HA Binding RLU for TCN-531 (5091_H13) (antibody, V domains shown) VH: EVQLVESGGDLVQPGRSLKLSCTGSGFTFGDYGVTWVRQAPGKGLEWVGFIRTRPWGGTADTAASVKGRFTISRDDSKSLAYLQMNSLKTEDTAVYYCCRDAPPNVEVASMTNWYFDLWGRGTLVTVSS VL: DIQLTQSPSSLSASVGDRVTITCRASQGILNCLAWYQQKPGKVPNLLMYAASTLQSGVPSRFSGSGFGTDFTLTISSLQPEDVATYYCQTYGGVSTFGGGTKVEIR 3220
